Taken from PubChem BioAssay (EPA / NIEHS).

# Read-out: Epidermal growth factor receptor (EGFR), EGFR (gene 1956)
# methodDescription: BSK_hDFCGF_EGFR: BioMAP Diversity Plus: hDFCGF Assay for Epidermal growth factor receptor (EGFR) Biomarker Activity (AID 2283057)
# conditionInfo: primary human foreskin fibroblasts; actives raise or lower the signal
Calls of active or inactive are those of the source. How the source made its calls: active means hit-call score of the fitted dose curve at least 0.9, where 1 is the maximum; inactive means score below 0.9.
Pick from active, inactive when you respond.

// below: answered molecules
>>> classlabel("Oc1cccc2cccnc12")
"active"
>>> classlabel("CC(=O)[O][Hg][c]1ccccc1")
"inactive"
>>> classlabel("NC(=O)O")
"inactive"
>>> classlabel("BrCCBr")
"inactive"
>>> classlabel("CC(=O)C(Cl)C(=O)N(C)C (configuration not stated)")
"inactive"
>>> classlabel("COC(=O)Cc1ccccc1")
"inactive"
>>> classlabel("CCN1CCC2(CC1)COc1cc3c(cc12)N(C(=O)c1ccc(-c2ccc(-c4nnc(C)o4)cc2C)cc1)CC3")
"inactive"
>>> classlabel("C[C@@H]1C[C@@H]([C@H](O)CC2CC(=O)NC(=O)C2)C(=O)[C@@H](C)C1")
"inactive"

Asked: Which outcome was entered for the molecule `CC(C)(C)c1cc(O)ccc1O` in this test?
Given back: active

Asked: Field entry: `Cn1sc(Cl)cc1=O`
Given back: active

Asked: Another molecule to look at: `Oc1ccc(-c2ccccc2)cc1`
Given back: inactive

Asked: What about this molecule? `CC(C)(OO)c1ccccc1`
Given back: active
